- target system: hormone sensitive lipase, HSL (Rattus norvegicus)
- Construct: Isolated rat fat cells are obtained from epididymal adipose tissue; from tissue; host or cells: fat cells from epididymal adipose tissue of male Wistar rats
- Sequence (P15304 301-1068 limits assumed): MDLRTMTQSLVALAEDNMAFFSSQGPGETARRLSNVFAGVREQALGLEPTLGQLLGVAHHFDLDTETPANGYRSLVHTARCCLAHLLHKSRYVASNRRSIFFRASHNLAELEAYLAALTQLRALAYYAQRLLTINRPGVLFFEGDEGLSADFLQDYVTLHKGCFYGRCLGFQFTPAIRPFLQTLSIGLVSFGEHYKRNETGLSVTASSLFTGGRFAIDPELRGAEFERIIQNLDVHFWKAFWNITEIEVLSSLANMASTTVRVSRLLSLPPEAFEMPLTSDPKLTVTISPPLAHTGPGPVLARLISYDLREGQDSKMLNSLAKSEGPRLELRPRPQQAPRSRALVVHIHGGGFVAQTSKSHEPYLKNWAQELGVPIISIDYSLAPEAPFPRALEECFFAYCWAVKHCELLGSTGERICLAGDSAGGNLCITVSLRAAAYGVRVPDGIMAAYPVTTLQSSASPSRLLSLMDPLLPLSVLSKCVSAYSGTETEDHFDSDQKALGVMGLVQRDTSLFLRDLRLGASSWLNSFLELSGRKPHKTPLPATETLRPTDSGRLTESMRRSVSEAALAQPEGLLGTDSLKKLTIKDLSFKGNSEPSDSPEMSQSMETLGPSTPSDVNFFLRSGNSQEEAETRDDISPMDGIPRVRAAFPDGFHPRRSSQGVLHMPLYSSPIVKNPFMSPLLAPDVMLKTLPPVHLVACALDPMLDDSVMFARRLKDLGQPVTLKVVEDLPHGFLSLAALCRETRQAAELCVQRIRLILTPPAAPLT
- protocol summary: HSL inhibition assay
- Format: biochemical
- measurement context: partially purified HSL from rat fat cells; [3H]trioleoylglycerol substrate; 37° C. for 30 min
observed property: IC50 (µM)

A selection of reference data follows.
| molecule | unit text | IC50 |
| --- | --- | --- |
| CCCCCN(CCCCC)C(=O)n1nnc2ncccc21 [Example 24] | µM | 0.175 |
| CCCC1CCN(C(=O)n2nnc3ncccc32)CC1 [Example 31] | µM | 0.136 |

[I] CC1CCN(C(=O)n2nnc3ccc(Cl)nc32)CC1 [Example 61]
[II] Nc1ccc(C2CCN(C(=O)n3nnc4ncccc43)CC2)cc1 [Example 42]
[III] O=C(N1CCC(c2ccccc2F)CC1)n1nnc2ncccc21 [Example 43]
Exercise: Please put the entries in order of rising IC50. // rank by listing labels in the order requested
Solution: I, II, III
